Every entry's value here was drawn from patent US9770026B2.

system: corn rust; assay: protectant activity in vivo against corn rust; settings: Zea mays, 168 h, read-out: control effect against corn rust (%), 25 mg/L; protectant activity
This listing pairs compounds with measured pest or weed control at 25 µg/mL.
measure: pest or weed control at 25 µg/mL (%)

> print(dat)
                                   compound                           measure  unit.text  readout.number
1  CCC(Nc1ncnc(C)c1Cl)c1ccc(Oc2ccc(C(F)(F)F)cn2)cc1 (centres unmarked) [CK41, reference compound]  pest or weed control at 25 µg/mL          %              90
2  N#Cc1ccc(Oc2ccc(CCNc3nc(Cl)ncc3Cl)cc2)nc1 [CK26, reference compound]  pest or weed control at 25 µg/mL          %               0
3  CCc1ncnc(NC(C)c2ccc(Oc3ncc(C(F)(F)F)cc3Cl)cc2)c1Cl (centres unmarked) [CK39, reference compound]  pest or weed control at 25 µg/mL          %              80
4  Cc1c(Cl)c(NCCc2ccc(Oc3ccc(C(F)(F)F)cn3)cc2)nc[n+]1CC(=O)c1ccc(Cl)cc1 [CK49, reference compound]  pest or weed control at 25 µg/mL          %               0
5  CCc1ncnc(OCCc2ccc(Oc3ccccc3)cc2)c1Cl [CK13, reference compound]  pest or weed control at 25 µg/mL          %               0
6  FC(F)(F)c1ccc(Oc2ccc(CNc3ncnc4ccccc34)cc2)nc1 [CK31, reference compound]  pest or weed control at 25 µg/mL          %               0
7  CCc1ncnc(NC(C)c2ccc(Oc3ccc(C(F)(F)F)cc3)cc2)c1Cl (centres unmarked) [CK47, reference compound]  pest or weed control at 25 µg/mL          %               0
8  CCc1ncnc(NCc2ccc(Oc3nc(Cl)c(Cl)cc3Cl)cc2)c1Cl [CK36, reference compound]  pest or weed control at 25 µg/mL          %              40
